# System: normotensive dogs
# experimental-protocol: Intraocular pressure and ocular surface hyperemia in normotensive dogs
# Format: in vivo, dog
# measurement-setup: 0.1%, once daily for 5 days
Measured time of maximum IOP decrease accompanies every entry in the list below.
Report the value in h with no unit label.

Known results for compounds:
{"compound": "O=C(O)CCC/C=C\\C[C@@H]1[C@@H](COc2cccc(C(F)(F)F)c2)[C@H](O)C[C@H]1Cl [Example 24]", "time of maximum IOP decrease / h": 78}
{"compound": "O=C(O)CCC/C=C\\C[C@@H]1[C@@H](COc2cc(Cl)cc(Cl)c2)[C@H](O)C[C@H]1Cl [Example 15b]", "time of maximum IOP decrease / h": 102}
{"compound": "CC(C)OC(=O)CCC/C=C\\C[C@@H]1[C@@H](COc2cccc(C(F)(F)F)c2)[C@H](O)C[C@H]1Cl [Example 42i]", "time of maximum IOP decrease / h": 2}
{"compound": "Cc1cc(C)cc(OC[C@@H]2[C@@H](C/C=C\\CCCC(=O)O)[C@H](Cl)C[C@H]2O)c1 [Example 36]", "time of maximum IOP decrease / h": 52}

Lookup: Give me measured time of maximum IOP decrease, please, for this compound: O=C(O)CCC/C=C\C[C@@H]1[C@@H](COc2ccc(CO)cc2)[C@H](O)C[C@H]1Cl [Example 43]
Found: 98

====

Measured time of maximum OSH score accompanies every entry in the list below.
# Tested on: normotensive dogs
# experimental-protocol: Intraocular pressure and ocular surface hyperemia in normotensive dogs
# Type: in vivo, dog
# measurement-setup: 0.1%, once daily for 5 days
Report the value in h with no unit label.

Lookup: Param request: time of maximum OSH score | system normotensive dogs | item O=C(O)CCC/C=C\C[C@@H]1[C@@H](COc2cccc3ccccc23)[C@H](O)C[C@H]1Cl [Example 19]
Found: 54

Lookup: Param request: time of maximum OSH score | system normotensive dogs | item Cc1cc(C)cc(OC[C@@H]2[C@@H](C/C=C\CCCC(=O)OC(C)C)[C@H](Cl)C[C@H]2O)c1 [Example 42u]
Found: 74

Lookup: Param request: time of maximum OSH score | system normotensive dogs | item O=C(O)CCC/C=C\C[C@@H]1[C@@H](COc2ccc(CO)cc2)[C@H](O)C[C@H]1Cl [Example 43]
Found: 98

Lookup: Param request: time of maximum OSH score | system normotensive dogs | item CC(C)OC(=O)CCC/C=C\C[C@@H]1[C@@H](COc2cccc(C(F)(F)F)c2)[C@H](O)C[C@H]1Cl [Example 42i]
Found: 50

Lookup: Param request: time of maximum OSH score | system normotensive dogs | item O=C(O)CCC/C=C\C[C@@H]1[C@@H](COc2cc(Cl)cc(Cl)c2)[C@H](O)C[C@H]1Cl [Example 15b]
Found: 6

Lookup: Param request: time of maximum OSH score | system normotensive dogs | item CC(C)OC(=O)CCC/C=C\C[C@@H]1[C@@H](COc2ccc(CO)cc2)[C@H](O)C[C@H]1Cl [Example 42bb]
Found: 30

Lookup: Param request: time of maximum OSH score | system normotensive dogs | item O=C(O)CCC/C=C\C[C@@H]1[C@@H](COc2cccc(C(F)(F)F)c2)[C@H](O)C[C@H]1Cl [Example 24]
Found: 6

Lookup: Param request: time of maximum OSH score | system normotensive dogs | item O=C(O)CCC/C=C\C[C@@H]1[C@@H](COc2cc(C(F)(F)F)cc(C(F)(F)F)c2)[C@H](O)C[C@H]1Cl [Example 15]
Found: 52

Lookup: Param request: time of maximum OSH score | system normotensive dogs | item Cc1cc(C)cc(OC[C@@H]2[C@@H](C/C=C\CCCC(=O)O)[C@H](Cl)C[C@H]2O)c1 [Example 36]
Found: 28
